Data provenance is patent US20210323977A1.

Would you mind telling me the reported IC50 of each entry?
- Test system: human TLR8 (Homo sapiens)
- Sequence (Q9NR97 27-1041): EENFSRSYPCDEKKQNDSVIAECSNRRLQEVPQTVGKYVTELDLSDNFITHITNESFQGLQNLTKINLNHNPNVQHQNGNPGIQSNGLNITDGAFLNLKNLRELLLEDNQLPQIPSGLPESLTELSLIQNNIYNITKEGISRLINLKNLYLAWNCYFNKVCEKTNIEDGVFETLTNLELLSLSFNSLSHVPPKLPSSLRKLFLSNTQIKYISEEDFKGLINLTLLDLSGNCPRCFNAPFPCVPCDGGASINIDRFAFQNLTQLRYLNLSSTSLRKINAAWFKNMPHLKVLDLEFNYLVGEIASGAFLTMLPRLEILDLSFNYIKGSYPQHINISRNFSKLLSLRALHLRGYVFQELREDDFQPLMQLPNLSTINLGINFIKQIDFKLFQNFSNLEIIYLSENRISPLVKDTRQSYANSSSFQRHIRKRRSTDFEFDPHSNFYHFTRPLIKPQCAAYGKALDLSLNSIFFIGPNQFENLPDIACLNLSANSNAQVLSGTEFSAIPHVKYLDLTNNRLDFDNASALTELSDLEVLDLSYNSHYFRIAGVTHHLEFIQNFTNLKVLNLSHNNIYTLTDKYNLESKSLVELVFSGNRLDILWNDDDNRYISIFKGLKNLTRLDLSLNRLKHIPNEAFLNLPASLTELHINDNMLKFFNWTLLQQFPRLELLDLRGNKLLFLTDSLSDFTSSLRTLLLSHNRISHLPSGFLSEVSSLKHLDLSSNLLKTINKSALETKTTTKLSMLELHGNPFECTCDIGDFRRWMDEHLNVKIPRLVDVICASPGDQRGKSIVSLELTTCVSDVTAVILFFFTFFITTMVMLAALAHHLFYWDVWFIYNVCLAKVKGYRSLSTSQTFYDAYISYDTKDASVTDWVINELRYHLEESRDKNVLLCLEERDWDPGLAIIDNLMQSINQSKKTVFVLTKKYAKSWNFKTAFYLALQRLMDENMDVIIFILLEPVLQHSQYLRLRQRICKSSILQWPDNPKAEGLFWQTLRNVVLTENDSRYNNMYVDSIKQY
- Assay remarks: HEK293-Blue-hTLR-8 cells assay
- Details: HEK293-Blue-hTLR8 cells, SEAP reporter, R848 stimulation, 20 hrs
Respond with the bare value in nM.

stdin: Fill blank: measured IC50 of the compound N[C@H]1CC[C@H](NC(=O)C2CN(c3ccc(C(F)(F)F)c4nccnc34)CC23CC3)CC1 (some centres unmarked) is ____.
stdout: 175

stdin: Likewise for C[C@@H]1CN(c2ccc(C#N)c3ncccc23)C[C@H]1C(=O)N1CCC2(CCNCC2)CC1 (relative stereo) ?
stdout: 213

stdin: Likewise for C[C@@H]1CN(c2ccc(C#N)c3ncccc23)C[C@H]1C(=O)NC1CCCNCC1 (single isomer, unassigned) [Example 52A] ?
stdout: 225

stdin: Likewise for O=C(NC1CC2CCC(C1)N2)C1CN(c2ccc(C(F)(F)F)c3nccnc23)CC12CC2 (centres unmarked) ?
stdout: 243

stdin: Likewise for O=C(NC1CC2(CCNCC2)C1)C1CN(c2ccc(C(F)(F)F)c3nccnc23)CC12CC2 (centres unmarked) ?
stdout: 437

stdin: Likewise for N#Cc1ccc(N2CC(C(=O)NC3CCCNCC3)C(C(F)(F)F)C2)c2cccnc12 (single isomer, unassigned) [Example 30A] ?
stdout: 67

stdin: Likewise for CN1CCC(NC(=O)C2CN(c3ccc(C(F)(F)F)c4nccnc34)CC23CC3)CC1 (centres unmarked) ?
stdout: 30

stdin: Likewise for N#Cc1ccc(N2CC(C(=O)NC[C@H]3CNCCO3)C3(CC3)C2)c2nccnc12 (single isomer, unassigned) [Example 70A] ?
stdout: 34

stdin: Likewise for CN1CCCC(CNC(=O)C2CN(c3ccc(C#N)c4ncccc34)CC23CC3)C1 (centres unmarked) ?
stdout: 398

stdin: Likewise for C[C@@H]1CN(c2ccc(C#N)c3ncccc23)C[C@H]1C(=O)NC1CCN(C)CC1 (relative stereo) ?
stdout: 52

stdin: Likewise for CN1CCC(NC(=O)[C@@H]2CN(c3ccc(Cl)c4ncccc34)C[C@H]2C(F)(F)F)CC1 (relative stereo) ?
stdout: 51

stdin: Likewise for O=C(NC1CC2CCCC(C1)N2)C1CN(c2ccc(C(F)(F)F)c3nccnc23)CC12CC2 (centres unmarked) ?
stdout: 245

stdin: Likewise for N[C@@H]1CCC[C@H](NC(=O)C2CN(c3ccc(C(F)(F)F)c4nccnc34)CC23CC3)C1 (relative stereo) ?
stdout: 124

stdin: Likewise for O=C(NC1C2CCCC1CNC2)C1CN(c2ccc(C(F)(F)F)c3nccnc23)CC12CC2 (centres unmarked) ?
stdout: 216

stdin: Likewise for CC(C)[C@@H]1CN(c2ccc(C#N)c3ncccc23)C[C@H]1C(=O)NC1CCN(C)CC1 (relative stereo) ?
stdout: 489

stdin: Likewise for CN1CCC(NC(=O)[C@@H]2CN(c3ccc(C#N)c4ncccc34)C[C@H]2C(F)(F)F)CC1 (relative stereo) ?
stdout: 66

stdin: Likewise for CN1CCC(NC(=O)C2CN(c3ccc(C#N)c4ncccc34)CC2C(F)(F)F)CC1 (centres unmarked) ?
stdout: 75

stdin: Likewise for C[C@H]1CN(c2ccc(C#N)c3nccnc23)C[C@@H]1C(=O)NC1CCN(C)CC1 ?
stdout: 5

stdin: Likewise for N#Cc1ccc(N2CC(C(=O)NC3CCCNCC3)C(C(F)(F)F)C2)c2cccnc12 (single isomer, unassigned) [Example 30B] ?
stdout: 173

stdin: Likewise for CN1CCC(NC(=O)C2CN(c3ccc(C#N)c4nccnc34)CC23CC3)CC1 (single isomer, unassigned) [Example 7A] ?
stdout: 7

stdin: Likewise for C[C@@H]1CN(c2ccc(C#N)c3ncccc23)C[C@H]1C(=O)N1CCC2(CCNC2)C1 (relative stereo) ?
stdout: 225

stdin: Likewise for O=C(NC1CC2CNCC(C2)C1)C1CN(c2ccc(C(F)(F)F)c3nccnc23)CC12CC2 (centres unmarked) ?
stdout: 156

stdin: Likewise for N[C@@H]1C[C@H](NC(=O)C2CN(c3ccc(C(F)(F)F)c4nccnc34)CC23CC3)[C@@H]2C[C@@H]21 (some centres unmarked) ?
stdout: 251

stdin: Likewise for C[C@H]1CN(c2ccc(C#N)n3nccc23)C[C@@H]1C(=O)NC1CCN(C)CC1 ?
stdout: 404

stdin: Likewise for CN1CCC(NC(=O)C2CN(c3ccc(C#N)c4ncccc34)CC23CC3)CC1 (single isomer, unassigned) [Example 41A] ?
stdout: 191

stdin: Likewise for N#Cc1ccc(N2C[C@H](C(=O)NC3CCN(C4CCNCC4)CC3)[C@@H](C(F)(F)F)C2)c2nccnc12 ?
stdout: 38

stdin: Likewise for O=C(NC1CC2CNCC2C1)C1CN(c2ccc(C(F)(F)F)c3nccnc23)CC12CC2 (centres unmarked) ?
stdout: 77

stdin: Likewise for CN1CCC(NC(=O)[C@H]2CN(c3ccc(C#N)c4nccnc34)C[C@@H]2C(F)(F)F)CC1 ?
stdout: 13

stdin: Likewise for NC1CC(NC(=O)C2CN(c3ccc(C(F)(F)F)c4nccnc34)CC23CC3)C1 (centres unmarked) ?
stdout: 172
